target: Luciferin 4-monooxygenase (Photinus pyralis) (UniProt P08659); assay: qHTS profiling assay for firefly luciferase inhibitor/activator using purifed enzyme and Km concentrations of substrates (counterscreen for miR-21 project); settings: purified FLuc, luminescence inhibition; series mostly up to 57.5 µM; further: nearly all actives have a fitted effect of over 55% in size
Sequence (P08659 whole entry, looked up): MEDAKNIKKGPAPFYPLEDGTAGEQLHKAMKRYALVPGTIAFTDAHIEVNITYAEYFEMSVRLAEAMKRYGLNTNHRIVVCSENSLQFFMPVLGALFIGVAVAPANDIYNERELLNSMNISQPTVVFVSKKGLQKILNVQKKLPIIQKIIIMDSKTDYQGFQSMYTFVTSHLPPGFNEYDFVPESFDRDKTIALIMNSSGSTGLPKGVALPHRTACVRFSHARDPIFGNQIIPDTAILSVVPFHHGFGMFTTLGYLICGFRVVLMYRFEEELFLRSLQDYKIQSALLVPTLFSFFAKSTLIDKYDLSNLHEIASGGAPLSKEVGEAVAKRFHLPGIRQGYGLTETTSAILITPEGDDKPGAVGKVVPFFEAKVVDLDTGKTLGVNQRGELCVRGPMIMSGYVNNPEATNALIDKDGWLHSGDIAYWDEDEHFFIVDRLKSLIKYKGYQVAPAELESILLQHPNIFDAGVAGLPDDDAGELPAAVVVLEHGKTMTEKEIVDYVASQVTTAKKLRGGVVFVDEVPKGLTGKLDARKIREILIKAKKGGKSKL
In all, about 360,000 compounds went through this assay and about 25,000 (6.9%) were called active. Another 9% or so got no clear call; they are omitted. The call rests on the fitted dose curve; in most records, active means well fitted inhibition curve with a large enough effect; inconclusive means small, poorly fitted or top-dose-only effect; inactive means flat fitted curve, though single readings scatter. This is one part of a sample in which actives are shown more often than they occur.
Hi there, use one of these labels in your reply, thanks! active, inactive

Query block: How did this test come out for CC(NC(=O)c1cc2c(=O)n3ccccc3nc2n(C(C)C)c1=N)c1ccccc1 (stereo unspecified) ?
Result block: inactive

Query block: How did this test come out for CCCC(=O)Nc1ccc2oc(-c3ccc(O)c(Br)c3)nc2c1 ?
Result block: active

Query block: How did this test come out for COC(=O)c1cc(NC(=O)CCc2c(C)nc3c4c(C)cc(C)nc4nn3c2C)cc(C(=O)OC)c1 ?
Result block: inactive

Query block: How did this test come out for COc1ccc(CNc2nc(-c3ccc(Cl)cc3)cc(C(F)(F)F)n2)cc1 ?
Result block: inactive

Query block: How did this test come out for COc1ccc2oc(-c3ccc(C)c(NC(=O)c4sc5ccccc5c4Cl)c3)nc2c1 ?
Result block: inactive

Further cases:
Query block: How did this test come out for CCOC(=O)c1ccccc1NC(=O)c1nn(-c2ccc(OC)c(Cl)c2)c(=O)c2c1c1ccccc1n2C ?
Result block: inactive

Query block: How did this test come out for COc1ccccc1N=C1SC(C)CN1C(=O)C1CCC1 (stereo unspecified) ?
Result block: inactive

Query block: How did this test come out for CCCOc1ccc(C(=O)Nc2ccc3oc(-c4cccc(Cl)c4Cl)nc3c2)cc1 ?
Result block: inactive

Query block: How did this test come out for COc1ccc(CNc2nc(-c3ccc(Cl)cc3)nn2C(=O)c2ccccc2)cc1 ?
Result block: inactive

Query block: How did this test come out for Cc1cccc(C(=O)NCC(=O)OCC(=O)N(C)CC(=O)Nc2ccccc2Cl)c1 ?
Result block: inactive

Query block: How did this test come out for Cc1nc2ccccc2c(=O)n1-c1ccc(NS(=O)(=O)c2ccc(F)cc2F)cc1 ?
Result block: inactive

Query block: How did this test come out for O=C(Cc1ccc(Cl)cc1)NCC(c1cccs1)S(=O)(=O)c1ccc(Cl)cc1 (stereo unspecified) ?
Result block: inactive

Query block: How did this test come out for CN(C(=O)CSc1nnc(C2CC2)n1C)C1CCCc2ccccc21 (stereo unspecified) ?
Result block: inactive

Query block: How did this test come out for O=C(Nc1cc(-c2nc3ccccc3o2)ccc1Cl)c1cc([N+](=O)[O-])ccc1N1CCOCC1 ?
Result block: inactive

Query block: How did this test come out for O=C(CN1CCN(Cc2ccc(Cl)cc2)C1=O)NCc1ccc(F)cc1 ?
Result block: inactive

Query block: How did this test come out for COc1cccc(-c2nc3cc(C)ccc3o2)c1 ?
Result block: active

Query block: How did this test come out for O=C(Nc1ccc2oc(-c3ccc4ccccc4c3)nc2c1)c1cccs1 ?
Result block: active

Query block: How did this test come out for CCC(=O)Nc1cccc(-c2nc3cc(C)ccc3o2)c1 ?
Result block: active

Query block: How did this test come out for O=C(Nc1ccc(NC(=O)c2cccs2)cc1)c1ccc2ccccc2c1 ?
Result block: inactive

Query block: How did this test come out for O=C(CSc1nc2c(c(=O)[nH]1)CN(Cc1ccc(F)cc1)CC2)Nc1ccccc1Cl ?
Result block: inactive

Query block: How did this test come out for COc1ccc(Cn2c(-c3ccc(Cl)cc3)c[n+]3ccccc23)cc1 ?
Result block: active

Each recorded value in this set is attributed to PubChem BioAssay AID588342.
